systemName: Nav1.7 sodium channels (human SCN9A gene) (Homo sapiens (Human))
Sequence (Q15858 whole entry): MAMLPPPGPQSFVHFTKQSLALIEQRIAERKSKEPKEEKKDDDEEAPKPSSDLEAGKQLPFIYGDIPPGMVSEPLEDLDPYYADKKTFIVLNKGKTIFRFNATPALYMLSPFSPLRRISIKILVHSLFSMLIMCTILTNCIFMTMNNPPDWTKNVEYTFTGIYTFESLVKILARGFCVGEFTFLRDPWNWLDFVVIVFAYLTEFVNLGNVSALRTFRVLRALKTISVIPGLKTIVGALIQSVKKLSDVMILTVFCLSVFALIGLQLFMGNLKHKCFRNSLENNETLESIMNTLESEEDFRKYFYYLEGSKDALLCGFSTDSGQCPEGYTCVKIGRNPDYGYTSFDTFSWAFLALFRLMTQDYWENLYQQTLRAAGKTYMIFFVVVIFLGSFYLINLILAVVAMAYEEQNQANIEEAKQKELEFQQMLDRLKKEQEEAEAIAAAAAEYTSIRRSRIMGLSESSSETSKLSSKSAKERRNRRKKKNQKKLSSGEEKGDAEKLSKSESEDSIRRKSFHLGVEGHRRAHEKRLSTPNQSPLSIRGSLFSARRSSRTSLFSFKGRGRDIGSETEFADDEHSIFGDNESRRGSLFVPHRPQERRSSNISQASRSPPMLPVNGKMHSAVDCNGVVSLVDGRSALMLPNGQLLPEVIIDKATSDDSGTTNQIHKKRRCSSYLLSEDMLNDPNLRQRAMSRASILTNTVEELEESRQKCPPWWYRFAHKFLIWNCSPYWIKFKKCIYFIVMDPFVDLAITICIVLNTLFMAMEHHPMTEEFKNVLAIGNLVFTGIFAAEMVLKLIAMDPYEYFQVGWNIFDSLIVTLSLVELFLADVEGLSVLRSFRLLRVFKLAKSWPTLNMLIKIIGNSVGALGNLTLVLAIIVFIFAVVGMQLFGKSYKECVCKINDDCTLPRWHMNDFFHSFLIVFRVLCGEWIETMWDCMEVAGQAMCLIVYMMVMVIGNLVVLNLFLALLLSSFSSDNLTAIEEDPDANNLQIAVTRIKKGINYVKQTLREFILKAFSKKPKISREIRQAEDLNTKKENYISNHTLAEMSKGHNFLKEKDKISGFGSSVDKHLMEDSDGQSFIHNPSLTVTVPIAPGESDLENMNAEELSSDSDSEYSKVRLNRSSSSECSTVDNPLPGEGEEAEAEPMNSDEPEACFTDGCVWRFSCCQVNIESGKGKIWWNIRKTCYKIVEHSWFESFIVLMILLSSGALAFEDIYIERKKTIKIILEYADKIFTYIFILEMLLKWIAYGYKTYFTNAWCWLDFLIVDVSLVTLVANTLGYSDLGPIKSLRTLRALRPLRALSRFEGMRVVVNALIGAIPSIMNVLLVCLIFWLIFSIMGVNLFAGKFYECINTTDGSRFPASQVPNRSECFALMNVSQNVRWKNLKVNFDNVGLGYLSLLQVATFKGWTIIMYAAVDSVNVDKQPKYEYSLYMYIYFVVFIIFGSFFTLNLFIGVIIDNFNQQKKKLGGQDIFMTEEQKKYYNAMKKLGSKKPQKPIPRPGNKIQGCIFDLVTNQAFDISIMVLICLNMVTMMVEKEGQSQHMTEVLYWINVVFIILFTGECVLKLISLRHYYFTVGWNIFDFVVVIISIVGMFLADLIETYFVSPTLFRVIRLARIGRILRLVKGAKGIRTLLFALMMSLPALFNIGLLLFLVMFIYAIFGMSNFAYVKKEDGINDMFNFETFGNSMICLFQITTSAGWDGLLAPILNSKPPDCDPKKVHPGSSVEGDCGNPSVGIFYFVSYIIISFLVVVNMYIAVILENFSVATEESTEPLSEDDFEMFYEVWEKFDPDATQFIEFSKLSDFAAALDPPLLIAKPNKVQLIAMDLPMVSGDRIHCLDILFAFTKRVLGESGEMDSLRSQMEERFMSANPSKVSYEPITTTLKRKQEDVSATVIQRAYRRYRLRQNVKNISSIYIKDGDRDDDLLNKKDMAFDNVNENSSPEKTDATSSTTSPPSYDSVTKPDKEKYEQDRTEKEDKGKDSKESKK
runDescription: Automated patch clamp (IonWorks Barracuda) of Nav1.7 stably expressed in CHO cells
Assay type: cell-based
measurementSetup: inactivated state block, CHO cells; read-out: Inactivated state IC50
Reported IC50 by item:

| molecule | unitSymbol | modifier | IC50 |
| --- | --- | --- | --- |
| Nc1nc(N2CCNCC23CC3)nnc1-c1cccc(Cl)c1Cl [Compound 141] | µM | = | 149 |
| CCOC[C@H](O)CN1CCN(c2nnc(-c3cccc(Cl)c3Cl)c(N)n2)CC1 [Compound 55] | µM | = | 62.3 |
| Nc1nc(N2CCN(CCOCCO)CC2)nnc1-c1cccc(Cl)c1Cl [Compound 201] | µM | = | 202 |
| CN(CCNC[C@H](O)C(F)(F)F)c1nnc(-c2cccc(Cl)c2Cl)c(N)n1 [Compound 147] | µM | < | 50 |
| CC(C)OCCOCCOCCNc1nnc(-c2cccc(Cl)c2Cl)c(N)n1 [Compound 209] | µM | < | 50 |
| Nc1nc(N2CCN[C@@H](CO)C2)nnc1-c1cccc(Cl)c1Cl [Compound 122] | µM | > | 150 |
| COC(=O)COCCOCCNc1nnc(-c2cccc(Cl)c2Cl)c(N)n1 [Compound 197] | µM | < | 50 |
| COCCOCCOCCN1C(C)CN(c2nnc(-c3cccc(Cl)c3Cl)c(N)n2)CC1C (stereo not shown) [Compound 111] | µM | < | 50 |
| COCCOCCOCC(COCCOCCOC)OCCNc1nnc(-c2cccc(Cl)c2Cl)c(N)n1 [Compound 180] | µM | = | 298 |
| COCCOCC(=O)N(C)CCN(C)c1nnc(-c2cccc(Cl)c2Cl)c(N)n1 [Compound 190] | µM | = | 273 |
| Nc1nc(N2CCN(CCO)CC2)nnc1-c1cccc(Cl)c1Cl [Compound 200] | µM | = | 120 |
| CN(CCN(C)c1nnc(-c2cccc(Cl)c2Cl)c(N)n1)C(=O)COCC(N)=O [Compound 192] | µM | > | 300 |
| COCCOCCN(C)CCN(C)c1nnc(-c2cccc(Cl)c2Cl)c(N)n1 [Compound 193] | µM | < | 50 |
| COCCOCCOCC(O)CNc1nnc(-c2cccc(Cl)c2Cl)c(N)n1 (stereo not shown) [Compound 153] | µM | > | 300 |
| CC(=O)NCCOCCNc1nnc(-c2cccc(Cl)c2Cl)c(N)n1 [Compound 175] | µM | > | 300 |
| CN1CCN(CCOCCNc2nnc(-c3cccc(Cl)c3Cl)c(N)n2)CC1 [Compound 169] | µM | > | 300 |
| COCCOCCOCCN1CCC(Nc2nnc(-c3cccc(Cl)c3Cl)c(N)n2)CC1 [Compound 108] | µM | = | 185 |
| Nc1nc(N2CCN(C[C@H](O)COC3CCC3)CC2)nnc1-c1cccc(Cl)c1Cl [Compound 84] | µM | < | 50 |
| Nc1nc(NC2CNC2)nnc1-c1cccc(Cl)c1Cl [Compound 132] | µM | > | 300 |
| CC(C)(C)OC(=O)COCCN1CCN(c2nnc(-c3cccc(Cl)c3Cl)c(N)n2)CC1 [Compound 203] | µM | < | 50 |
| Nc1nc(N2CCNCC2)nnc1-c1cccc(Cl)c1Cl [Compound 79] | µM | = | 95.3 |
| C[S+]([O-])CCOCCNc1nnc(-c2cccc(Cl)c2Cl)c(N)n1 (stereo not shown) [Compound 187] | µM | = | 160 |
| COC[C@@H](O)CN(C)CC1CN(c2nnc(-c3cccc(Cl)c3Cl)c(N)n2)C1 [Compound 160] | µM | = | 292 |
| Nc1nc(N2CCN(CC(F)(F)F)CC2)nnc1-c1cccc(Cl)c1Cl [Compound 87] | µM | < | 50 |
| COC[C@@H](O)CNC1(C)CCN(c2nnc(-c3cccc(Cl)c3Cl)c(N)n2)C1 (stereo partly shown) [Compound 162] | µM | = | 194 |
| Nc1nc(N2CCN(CCOC(F)(F)F)CC2)nnc1-c1cccc(Cl)c1Cl [Compound 88] | µM | < | 50 |
| CN(CCNc1nnc(-c2cccc(Cl)c2Cl)c(N)n1)C[C@H](O)C(F)(F)F [Compound 148] | µM | < | 50 |
| Nc1nc(N2CCNC[C@H]2CO)nnc1-c1cccc(Cl)c1Cl [Compound 135] | µM | > | 300 |
| COC[C@@H](O)CN[C@@H]1CCN(c2nnc(-c3cccc(Cl)c3Cl)c(N)n2)C1 [Compound 159] | µM | = | 289 |
| COCCOCCOCC(=O)N1CCC(Nc2nnc(-c3cccc(Cl)c3Cl)c(N)n2)CC1 [Compound 107] | µM | > | 300 |
| COCCOCCOCC(=O)N1CCN(c2nnc(-c3cccc(Cl)c3Cl)c(N)n2)CC1 [Compound 105, 3-N-mPEG2-CM-piperazinyl lamotrigine] | µM | > | 300 |
| COCCOCC(=O)NCC(O)CNc1nnc(-c2cccc(Cl)c2Cl)c(N)n1 (stereo not shown) [Compound 196] | µM | > | 300 |
| CC(C)(C)OCC(O)CN1CCN(c2nnc(-c3cccc(Cl)c3Cl)c(N)n2)[C@H](CO)C1 (stereo partly shown) [Compound 139] | µM | = | 103 |
| COC[C@@H](O)CN1CCN(c2nnc(-c3cccc(Cl)c3Cl)c(N)n2)CC1 [Compound 97] | µM | = | 90.5 |
